Data credit: paper PMC12396409

For each of the molecules below, state its Pf_72h_%Growth_Rep1.
tested on: P. falciparum 3D7 parasites; test: P. falciparum growth inhibition assay, 1-cycle (72 h treatment), SYBR DNA staining (library screen at 2 μg/mL and dose-response); type: cell-based, Plasmodium falciparum; conditions: P. falciparum 3D7, 72 h, parasite screen at 2 μg/mL, % growth, replicate 1
Report the value in % with no unit label.

Request: Return reported Pf_72h_%Growth_Rep1; argument: CC[C@H]1C[C@@H]2CC[C@@H](O2)[C@@H](C)C(=O)O[C@H](C)C[C@H]2CC[C@H](O2)[C@H](C)C(=O)O[C@@H](C)C[C@@H]2CC[C@@H](O2)[C@@H](C)C(=O)O[C@H](C)C[C@H]2CC[C@H](O2)[C@H](C)C(=O)O1
Response: 7.23

Request: Suppose we examine the molecule CC1CC=CC=CC=CC=CC(OC2OC(C)C(O)C(N)C2O)CC2OC(O)(CC(O)CC3OC3C=CC(=O)O1)CC(O)C2C(=O)O (centres unmarked) ; what Pf_72h_%Growth_Rep1 value has been reported?
Response: 82.66

Request: Which measured Pf_72h_%Growth_Rep1 value corresponds to CCOC(=O)[C@H](Cc1ccccc1)NC(=O)c1cc(Cl)c2c(c1O)C(=O)O[C@H](C)C2 ?
Response: 85.35

Request: If you can, please state the reported Pf_72h_%Growth_Rep1 value of CC[C@@H]1CCN[C@H](C(=O)N[C@@H]([C@H]2O[C@H](SC)[C@H](O)[C@@H](O)[C@H]2O)[C@H](C)Cl)C1 .
Response: 26.60

Request: // query Pf_72h_%Growth_Rep1 value for entry COc1cc(C)c(C(=O)O)c(OC)c1
Response: 84.80

Request: Return reported Pf_72h_%Growth_Rep1; argument: Cc1cccc(O)c1C(=O)O
Response: 90.28

Request: Query (molecule): OC[C@H]1O[C@@H](n2cnc3c2N=CNC[C@H]3O)C[C@@H]1O ; field requested: Pf_72h_%Growth_Rep1
Response: 69.65

Request: Field request: Pf_72h_%Growth_Rep1 | item: Cc1cc(O)cc(O)c1C(=O)O
Response: 83.41

Request: Item CCCCCCCC(=O)N[C@H]1CCOC1=O has what recorded Pf_72h_%Growth_Rep1?
Response: 81.24

Request: Report Pf_72h_%Growth_Rep1 for CON=C1CC2(CC3CC(CC=C(C)CC(C)C=CC=C4COC5C(O)C(C)=CC(C(=O)O3)C45O)O2)OC(C(C)=CC(C)C)C1C (centres unmarked) please.
Response: 17.45

Request: Query: Pf_72h_%Growth_Rep1; subject: C[C@@H]1Cc2c(Cl)cc(C(=O)N[C@@H](Cc3ccccc3)C(=O)O)c(O)c2C(=O)O1
Response: 84.32

Request: Recorded Pf_72h_%Growth_Rep1 for COc1c(-c2ccccc2)c2ccccc2[nH]c1=O , please?
Response: 89.32

Request: Which Pf_72h_%Growth_Rep1 value is on record for NC(=O)c1cccc2nc3ccccc3nc12 ?
Response: 73.74

Request: Please give the measured Pf_72h_%Growth_Rep1 for this molecule: O=C(O)CC[N+](=O)[O-]
Response: 75.60

Request: Which value of Pf_72h_%Growth_Rep1 has been reported for C=C[C@]1(C)C[C@@H](O)[C@]2(C)[C@H](C)CC[C@]3(CCC(=O)[C@H]32)[C@@H](C)[C@@H]1O in the records?
Response: 79.79

Request: Which Pf_72h_%Growth_Rep1 reading was recorded for the molecule CC(C)=CCCC(C)C1CCC2(C)CC3C(C(=O)CC3(C)O)C(C=O)=CCC12 (centres unmarked) ?
Response: -0.50

Request: Give the measured Pf_72h_%Growth_Rep1 of CC[C@H](C)C(=O)O[C@H]1CCC=C2C=C[C@H](C)[C@H](CC[C@@H]3C[C@@H](O)CC(=O)O3)[C@H]21 .
Response: 86.39

Request: What value of Pf_72h_%Growth_Rep1 has been recorded for this entry: CC(C)=CC1CC(C)C2(CCC3(C)CC4C(C(=O)CC4(C)O)C(C=O)=CCC32)O1 (centres unmarked)
Response: 4.64

Request: Requested read-out: Pf_72h_%Growth_Rep1. Entry: COc1ccc2c(c1OC)C[N+]1(C)CCc3cc4c(cc3C1C2)OCO4.[I-] (centres unmarked)
Response: 14.79

Request: For the molecule shown here, COc1cc(O)c2c(c1)/C=C/C[C@H](O)[C@H](O)C(=O)/C=C/C[C@H](C)OC2=O , give the reported Pf_72h_%Growth_Rep1.
Response: 68.65

Request: Any idea what Pf_72h_%Growth_Rep1 was measured for CC1=C[C@H]2O[C@@H]3[C@H](O)[C@@H](O)[C@](C)([C@@]2(CO)[C@H](O)C1=O)[C@]31CO1 ?
Response: 4.51

Request: I'd like to know its Pf_72h_%Growth_Rep1. The molecule in question is O=C1Cc2ccccc2N1
Response: 82.92

Request: Any idea what its Pf_72h_%Growth_Rep1 is? The molecule is CO[C@@H]1[C@@H](OC(N)=O)[C@@H](O)[C@H](Oc2ccc3c(O)c(NC(=O)c4ccc(O)c(CC=C(C)C)c4)c(=O)oc3c2C)OC1(C)C
Response: 77.54

Request: Which Pf_72h_%Growth_Rep1 reading was recorded for the molecule Oc1cc(O)cc(O)c1 ?
Response: 72.55

Request: Any idea what Pf_72h_%Growth_Rep1 was measured for CCCCCCCCCCCCCCCCCC(=O)N[C@H]1CCOC1=O ?
Response: 84.33

Request: Could you tell me which Pf_72h_%Growth_Rep1 is on file for Cn1c2ccccc2c(=O)c2c(O)cc3c(c21)C=CC(C)(C)O3 ?
Response: 90.51

Request: Requested read-out: Pf_72h_%Growth_Rep1. Entry: CC1=CCC2CC(CC3(CCC(C)C(C)O3)O2)OC(=O)C2C=C(C)C(=NO)C3OCC(=CC=CC(C)C1)C23O (centres unmarked)
Response: 53.63

Request: Quick one: Pf_72h_%Growth_Rep1 for CNC1CC2OC(C)(C1OC)n1c3ccccc3c3c4c(c5c6ccccc6n2c5c31)C(=O)NC4=O (centres unmarked) ?
Response: 5.55

Request: Which Pf_72h_%Growth_Rep1 is reported for this molecule? CO[C@@]12[C@H](COC(N)=O)C3=C(C(=O)C(C)=C(N)C3=O)N1C[C@@H]1N[C@@H]12
Response: 82.66
